Quick reference: z-score of the listed items.
# ASSAY_REMARKS: FRG1 promoter luciferase signal modulators, primary screen, FRG1 inhibition for FSHD, cell-based, C2C12 myotubes, firefly/Renilla luciferase, luminescence (AID 1084)
# EXPERIMENTAL_CONTEXT: higher = more signal, called active from +8 up or from −8 down
Give only the figure.

MOLECULE	NUMERIC_RESULT
COC(=O)[C@H](Cc1ccccc1)N1CC(/C=C/C2CC2)=C[C@@H]1[C@@H](O)Cc1ccccc1	-1.09
O=C1O[C@@H](c2ccccc2)[C@@H](c2ccccc2)N2[C@@H](c3ccc(O)cc3)[C@]3(C(=O)Nc4ccc(C#CCCO)cc43)[C@@H](C(=O)NC[C@H](O)c3ccccc3)[C@H]12	-0.233
COC(=O)[C@@]1(Cc2ccccc2)[C@H]2c3cc(C(=O)N4CCCC4)n(Cc4cc(F)cc5c4OCOC5)c3C[C@H]2CN1C(=O)c1ccccc1	-0.223

Turning now to a further molecule:
If you can, please state the reported z-score value of O=C1OCC=C[C@H]2OC34C=CCN(c5ccc(Cl)cc5)C(=O)[C@H]3N(CCCCCO)C(=O)[C@@H]4[C@@H]12 (some centres undefined) .
-0.633

* * *

# ASSAY_REMARKS: E. coli growth modulation, two-sided OD650, primary screen, E. coli filamentation project, strain DRC41, 24 h (AID 1093);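 also: MC1000 strain lacking acrAB efflux and sulA so SOS filamentation is blocked; test concentration not given here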
# EXPERIMENTAL_CONTEXT: OD650, 24 h, higher = more signal, called active from +8 up or from −8 down
Kindly note that classification relies on z-score with these boundaries: group 1 (below 0.3), group 2 (0.3 to below 0.9), group 3 (0.9 or more)

Completed entries (count: 2):
COMPOUND	LABEL_VALUE
COCCOC(=O)N1C(=O)[C@@]2(c3cc(C#CC4=CCCCC4)ccc31)[C@H](c1ccc(O)cc1)N1[C@H](c3ccccc3)[C@H](c3ccccc3)OC(=O)[C@H]1[C@@H]2C(=O)Nc1nc2ccccc2s1	group 1
C=CCNC(=O)[C@H]1[C@@H]2C(=O)O[C@@H](c3ccccc3)[C@@H](c3ccccc3)N2[C@@H](c2ccccc2OCCO)[C@]12C(=O)N(C(=O)OCCOC)c1ccc(C#CC3=CCCCC3)cc12	group 3

Exam item: assign CO[C@H]1O[C@H](CO)[C@@H](OC(=O)Nc2ccc(Oc3ccccc3)cc2)[C@H](OC(=O)Nc2ccccc2-c2ccccc2)[C@@H]1OC(=O)Nc1ccccc1-c1ccccc1 to the correct category.
group 3

Exam item: assign C#CCNC(=O)[C@H](Cc1ccccc1)NC(=O)[C@@H](N=[N+]=[N-])C(C)C to the correct category.
group 2

Exam item: assign COc1c(C)cc(-c2cc3c(c(-c4ccccc4)n2)[Si](C(C)C)(C(C)C)OC3)cc1C to the correct category.
group 2

Exam item: assign CC(C)(C)OC(=O)CC[C@]1(C(=O)NCCN2CCOCC2)N=C(c2ccc(OCCCO)cc2)O[C@H]1c1ccccc1N=[N+]=[N-] to the correct category.
group 1

Exam item: assign Cc1ccc(S[C@]2(C(=O)NC(C)C)CC(=O)N(C3Cc4ccccc4C3)[C@@H]2c2ccc(CO)cc2I)cc1 to the correct category.
group 2

Exam item: assign [N-]=[N+]=NCc1ccccc1C[C@@]1(C(N)=O)N=C(c2ccc(OCCCO)cc2)O[C@@H]1c1ccccc1CN=[N+]=[N-] to the correct category.
group 2

* * *

# TESTED_SYSTEM: NADPH oxidase 4 (Homo sapiens) (UniProt Q9NPH5)
# Sequence (Q9NPH5 whole entry, looked up): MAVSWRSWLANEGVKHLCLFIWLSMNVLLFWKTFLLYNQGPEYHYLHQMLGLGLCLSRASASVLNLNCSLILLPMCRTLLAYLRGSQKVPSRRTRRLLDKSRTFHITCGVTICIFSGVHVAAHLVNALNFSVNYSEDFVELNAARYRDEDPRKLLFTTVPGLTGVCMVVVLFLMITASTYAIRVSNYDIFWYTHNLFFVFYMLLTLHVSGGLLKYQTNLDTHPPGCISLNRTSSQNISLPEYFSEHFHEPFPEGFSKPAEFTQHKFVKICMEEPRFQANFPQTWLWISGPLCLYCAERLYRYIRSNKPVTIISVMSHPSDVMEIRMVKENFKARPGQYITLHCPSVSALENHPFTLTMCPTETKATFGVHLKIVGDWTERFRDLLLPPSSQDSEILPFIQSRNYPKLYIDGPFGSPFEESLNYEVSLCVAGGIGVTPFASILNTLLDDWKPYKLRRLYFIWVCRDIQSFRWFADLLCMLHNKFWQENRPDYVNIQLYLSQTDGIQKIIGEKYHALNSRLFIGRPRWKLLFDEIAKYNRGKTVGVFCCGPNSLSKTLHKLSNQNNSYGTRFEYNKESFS
# ASSAY_REMARKS: NOX4-dependent H2O2 signal modulators, primary screen, NOX inhibitor project, cell-based, HEK293-NOX4, tetracycline-induced, Amplex Red fluorescence (AID 1160)
# EXPERIMENTAL_CONTEXT: 45 min, higher = more signal, called active from +8 up or from −8 down
METRIC: z-score
Give only the figure.

If you can, please state the reported z-score value of COc1ccc(C(O)C2C=CC3C(=O)N(Cc4ccccc4)C(=O)C3N2n2cnnc2)c2ccccc12 (stereo not drawn) .
-0.674

If you can, please state the reported z-score value of COc1ccc([Si](C)(C)[C@@H]2[C@@H](CCO)O[C@]3(C(=O)N(Cc4cccc(N5C(=O)c6ccccc6Oc6ccccc65)c4)c4ccccc43)[C@H]2C)cc1 .
0.543

If you can, please state the reported z-score value of CN(C)CCCCNC(=O)[C@H]1C[C@H]2C(=O)N3CCC[C@H]3C(=O)N2[C@H]1c1ccc(O)cc1 .
-0.561

If you can, please state the reported z-score value of CC(C)NC(=O)[C@@]1(C)c2ccccc2C(=O)N(C(C)C)[C@H]1c1ccc(CO)cc1 .
0.375

If you can, please state the reported z-score value of COc1cc(OC)c(C(O)C2C=CC3C(=O)N(c4ccccc4)C(=O)C3N2Nc2ccc(C#N)cc2)cc1Br (stereo not drawn) .
-5.35

If you can, please state the reported z-score value of O=C1C2C=CC(C(O)c3cc(C(F)(F)F)cc(C(F)(F)F)c3)N(Nc3ccc([N+](=O)[O-])cc3)C2C(=O)N1c1ccccc1 (stereo not drawn) .
-2.65

If you can, please state the reported z-score value of CN(C)CCCN1C(=O)[C@@]2(c3ccc([N+](=O)[O-])cc3)CC(=O)N(CC34CC5CC(CC(C5)C3)C4)[C@@H]2c2ccc(CO)cc21 .
-0.0839

If you can, please state the reported z-score value of C=C[C@@H](C)[C@H](OC(=O)Nc1ccc(SC)cc1)c1ccc(OCCO)cc1 .
-0.14

If you can, please state the reported z-score value of COCCOC(=O)N1C(=O)[C@@]2(c3ccccc31)[C@H](c1ccc(OCCO)cc1)N1[C@H](c3ccccc3)[C@H](c3ccccc3)OC(=O)[C@H]1[C@@H]2C(=O)Nc1nc2ccccc2s1 .
1.17

If you can, please state the reported z-score value of CC(CO)N1C(=O)[C@@H]2C3C(=O)OCCC/C=C\[C@H]3OC23C=CCN(Cn2nnc4ccccc42)C(=O)[C@@H]13 (stereo partly drawn) .
0.193

If you can, please state the reported z-score value of CCOC(=O)C1=CC[C@@H](c2ccccc2C(F)(F)F)N(S(=O)(=O)c2ccc(C)cc2)C1 .
-0.742

If you can, please state the reported z-score value of CC(=O)n1cc(C(O)C2C=CC3C(=O)N(Cc4ccccc4)C(=O)C3N2n2cnnc2)c2ccccc21 (stereo not drawn) .
-0.738

If you can, please state the reported z-score value of COC(=O)[C@@]1(Cc2ccc(OC)cc2)[C@H]2c3cc(C(=O)N4CCCC4)n(CCc4cc5ccccc5[nH]4)c3C[C@H]2CN1C(=O)c1ccccc1 .
0.319

* * *

# TESTED_SYSTEM: Follistatin-related protein 3 (Homo sapiens) (UniProt O95633)
# Sequence (O95633 whole entry, looked up): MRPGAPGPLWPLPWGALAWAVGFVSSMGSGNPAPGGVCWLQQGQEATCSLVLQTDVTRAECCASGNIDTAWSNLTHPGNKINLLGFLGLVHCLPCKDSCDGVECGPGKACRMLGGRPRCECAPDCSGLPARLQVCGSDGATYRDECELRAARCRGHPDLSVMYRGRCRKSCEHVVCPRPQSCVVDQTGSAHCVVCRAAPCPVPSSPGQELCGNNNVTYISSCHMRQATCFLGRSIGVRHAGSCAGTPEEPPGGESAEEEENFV
# ASSAY_REMARKS: FSTL3 binders on small-molecule microarrays, primary screen, biochemical, small-molecule microarray, 635 nm fluorescence (AID 1105);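 also: score merges emission near 667 nm and signal to noise per printed spot across three slides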
# EXPERIMENTAL_CONTEXT: FSTL3 binding, higher = more signal
Kindly note that classification relies on composite z-score with these boundaries: LOW (below -1), MEDIUM (-1 to below 0.3), HIGH (0.3 or more)

COMPOUND	LABEL_VALUE
Cc1ccc(F)cc1S(=O)(=O)N[C@@H]1CCN(Cc2ccc(OC(C)C)cc2)C1	MEDIUM
C[C@]1(C(=O)O)c2ccccc2C(=O)N(Cc2ccccc2)[C@H]1c1ccc(CO)cc1	LOW
C=C(C(=O)CC[C@H](OC(=O)c1cccnc1)c1cccc(OCCO)c1)C(C)C	LOW

Exam item: assign C=CC[C@@]1(C(=O)O)N=C(c2ccc(OCCCO)cc2)O[C@@H]1c1ccccc1 to the correct category.
LOW

Exam item: assign O=C1O[C@@H](c2ccccc2)[C@@H](c2ccccc2)N2[C@@H](c3ccc(O)cc3)[C@]3(C(=O)Nc4ccc(C#CC5=CCCCC5)cc43)[C@@H](C(=O)N3CCN(c4ncccn4)CC3)[C@H]12 to the correct category.
HIGH

Exam item: assign CC(=O)N1Cc2ccccc2C[C@]2(N=C(c3ccc(OCCCO)cc3)O[C@@H]2c2ccccc2)C1=O to the correct category.
HIGH

Exam item: assign COc1cc2c(cc1O)C(C)N(Cc1cc3c(cc1Br)OCO3)CC2 (centres undefined) to the correct category.
MEDIUM

Exam item: assign CCCc1cccc(=O)o1 to the correct category.
MEDIUM

Exam item: assign [N-]=[N+]=Nc1ccccc1[C@H]1OC(c2ccc(OCCCO)cc2)=N[C@@]1(CCS(=O)(=O)c1ccccc1)C(=O)N1CCCCC1 to the correct category.
HIGH

* * *

Quick reference: z-score of the listed items.
# ASSAY_REMARKS: mitochondrial membrane potential change in A549 cells, profiling panel, cell-based, JC-1 fluorescence, basal, 24 h, 100 nL (AID 1138);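 also: A549 lung adenocarcinoma cells under basal conditions with no added stimulus; test concentration not given here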
# EXPERIMENTAL_CONTEXT: higher = more signal
Give only the figure.

Before answering, review these 3 worked examples.
MOLECULE	NUMERIC_RESULT
CC(C)CN1C(=O)[C@@]2(c3ccc([N+](=O)[O-])cc3)CC(=O)N(CC34CC5CC(CC(C5)C3)C4)[C@@H]2c2ccc(CO)cc21	-0.422
CCOC(=O)[C@@H]1[C@@H]2C(=O)N(CC)C(=O)[C@@H]2C[C@@H]1Sc1ccccc1	-1.24
COc1c(C)cc(-c2cc3c(c(-c4ccccc4)n2)[Si](C(C)C)(C(C)C)OC3)cc1C	0.439

If you can, please state the reported z-score value of CCOC(=O)C1=CC[C@@H](c2ccccc2)N(S(=O)(=O)c2ccc(C)cc2)C1 .
0.747

If you can, please state the reported z-score value of CC(C)(C)OC(=O)CC[C@@]1(C(=O)O)N=C(c2ccc(OCCCO)cc2)O[C@@H]1c1ccccc1 .
-0.161

If you can, please state the reported z-score value of COC(=O)[C@@]1(Cc2ccc(OC)cc2)[C@H]2c3cc(C(=O)N4CCCC4)n(CCc4cc5ccccc5[nH]4)c3C[C@H]2CN1C(=O)c1ccccc1 .
1.3

If you can, please state the reported z-score value of C=C(/C(=C/C[C@@H](OC(=O)c1ccncc1)c1ccccc1OCCO)c1cc(C(=O)OC)ccc1OC)C(C)C .
3.35

If you can, please state the reported z-score value of COc1ccc(CCNC(=O)[C@@]2(Sc3ccc(C)cc3)CC(=O)N(Cc3cc(C(F)(F)F)cc(C(F)(F)F)c3)[C@@H]2c2ccc(CO)cc2I)cc1 .
0.345

Where do the numbers come from? From PubChem BioAssay.
